Biological target: T1, recombinant human CEACAM-1 (R&D Systems cat. no. 2244-CM-050) (human, UniProt P13688 35-428)
T1 construct: Coated on the ELISA plate at 0.5 ug/ml
T1 sequence (looked up): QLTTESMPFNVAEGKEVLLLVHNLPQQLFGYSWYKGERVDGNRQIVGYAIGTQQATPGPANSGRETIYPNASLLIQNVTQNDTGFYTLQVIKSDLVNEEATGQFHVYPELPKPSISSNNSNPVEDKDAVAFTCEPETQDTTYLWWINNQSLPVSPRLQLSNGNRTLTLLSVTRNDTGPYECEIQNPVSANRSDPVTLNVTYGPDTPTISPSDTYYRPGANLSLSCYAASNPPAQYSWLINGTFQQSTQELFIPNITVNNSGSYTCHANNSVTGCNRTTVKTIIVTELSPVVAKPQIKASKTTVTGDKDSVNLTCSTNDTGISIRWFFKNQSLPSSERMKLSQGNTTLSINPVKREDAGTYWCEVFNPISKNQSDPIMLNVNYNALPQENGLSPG
Assay: competition ELISA on coated recombinant human CEACAM-1; competitor biotinylated chimeric CM-10 IgG1
Quick reference: IC50 normalized to CM-10 of the listed items.

{"columns": ["binder", "measured-property", "result"],
 "data": [
  ["humanized anti-CEACAM-1 variant VH3/VK1, IgG4 (S241P) (antibody, V domains shown, Tested as human IgG4 (S241P) / kappa antibody; only the variable regions are tied to this variant) VH: QVQLVQSGAEVKKPGASVKVSCKASGYAFTNNLIEWVRQAPGQGLEWIGVINPGSGDTNYNEKFKGRATLTADKSINTAYMELSRLRSDDTAVYYCARGDYYGGFAVDYWGQGTTVTVSS VL: DIQMTQSPSSLSASVGDRVTITCRTSQDIGNYLNWYQQKPGKAVKLLIYYTSRLHSGVPSRFSGSGSGTDYTLTISSLQQEDIATYFCQQGKSLPRTFGGGTKVEIK", "IC50 normalized to CM-10", "1.16 ratio to IC50 of chimeric CM-10"]
]}

In the following, a different binder is considered.
Problem: Look up IC50 normalized to CM-10: humanized anti-CEACAM-1 variant VH4/VK2, IgG1 (antibody, V domains shown, Tested as human IgG1 / kappa antibody; only the variable regions are tied to this variant) VH: QVQLVQSGAEVKKPGASVKVSCKASGYAFTNNLIEWVRQAPGQGLEWIGVINPGSGDTNYNEKFKGRATLTADKSISTAYMELSRLRSDDTAVYYCARGDYYGGFAVDYWGQGTTVTVSS VL: DIQMTQSPSSLSASVGDRVTITCRTSQDIGNYLNWYQQKPGKAVKLLIYYTSRLHSGVPSRFSGSGSGTDYTLTISSLQPEDIATYFCQQGKSLPRTFGGGTKVEIK
Result: 1.24 ratio to IC50 of chimeric CM-10
